Target or test system: Recombinant human renin (Homo sapiens, UniProt P00797)
Construct: isolate the active form (residues 67-406); made in house; host or cells: FreeStyle 293-F cells (transient expression of pcDNA3.1(+)/hREN)
Sequence (P00797 67-406): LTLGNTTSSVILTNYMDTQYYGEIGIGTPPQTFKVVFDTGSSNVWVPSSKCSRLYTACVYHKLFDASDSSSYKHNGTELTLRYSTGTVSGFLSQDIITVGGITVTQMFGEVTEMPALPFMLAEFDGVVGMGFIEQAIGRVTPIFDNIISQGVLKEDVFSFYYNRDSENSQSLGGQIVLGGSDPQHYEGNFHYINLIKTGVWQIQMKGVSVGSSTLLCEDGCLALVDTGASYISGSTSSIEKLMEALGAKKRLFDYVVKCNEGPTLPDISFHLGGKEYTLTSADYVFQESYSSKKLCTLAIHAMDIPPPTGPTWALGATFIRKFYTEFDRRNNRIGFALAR
Assay overview: In vitro enzymatic activity assay of renin inhibitors (fluorogenic peptide substrate)
Format: biochemical
Experimental conditions: read-out: IC50 of Exemplified Compounds Against Renin
Result type: IC50

Please supply the value of reported IC50 for the item COCCCn1c([C@@H]2CCCN(C(=O)C[C@H](N)Cc3ccc(-c4ccncc4OC)cc3)C2)nc2ccccc21 [Compound 144]
< 0.1 µM

Please supply the value of reported IC50 for the item COCCCn1c([C@@H]2CCCN(C(=O)C[C@H](N)Cc3ccc4ccccc4c3)C2)nc2ccccc21 [Compound 74]
< 0.1 µM

Please supply the value of reported IC50 for the item COCCCn1c([C@@H]2CCCN(C(=O)C[C@H](N)CNC(=O)c3cccc(Cl)c3)C2)nc2ccccc21 [Compound 298]
0.1 to 1 µM

Please supply the value of reported IC50 for the item COCCCn1c([C@@H]2CCCN(C(=O)C[C@H](N)Cc3ccc(-c4ccc(NC(=O)COC)cc4)cc3)C2)nc2ccccc21 [Compound 197]
< 0.1 µM

Please supply the value of reported IC50 for the item COCCCn1c([C@@H]2CCCN(C(=O)C[C@H](N)CNC(=O)Nc3ccccc3SC)C2)nc2ccccc21 [Compound 284]
0.1 to 1 µM

Please supply the value of reported IC50 for the item COCCCn1c([C@@H]2CCCN(C(=O)C[C@H](N)Cc3ccc(-c4ccn[nH]4)cc3)C2)nc2ccccc21 [Compound 141]
0.1 to 1 µM

Please supply the value of reported IC50 for the item COCCCn1c([C@@H]2CCCN(C(=O)[C@@H]3CN(S(=O)(=O)c4c(Cl)cccc4Cl)C[C@H]3N)C2)nc2ccccc21 [Compound 347]
0.1 to 1 µM
